Numbers sourced from paper PMC3933419.

Can you tell me IC50 for the items I'm about to list?
Target Desc: CK2 (Rattus norvegicus)
Construct: Native CK2 and CK1 were purified from rat liver; from tissue; host or cells: rat liver
Experimental Details: CK2 phosphorylation assay
Type: biochemical
Assay Context: 20 µM ATP

Q. Given the entry `O=C1c2c(Br)c(Br)c(Br)c(Br)c2C(=O)N1c1ccon1` , report its measured IC50.
A. > 40 µM

Q. Given the entry `O=C1c2c(Br)c(Br)c(Br)c(Br)c2C(=O)N1c1nccs1` , report its measured IC50.
A. 16 µM

Q. Given the entry `O=C1c2c(Br)c(Br)c(Br)c(Br)c2C(=O)N1c1ccn[nH]1` , report its measured IC50.
A. 23 µM

Q. Given the entry `O=C1c2c(Br)c(Br)c(Br)c(Br)c2C(=O)N1c1cnccn1` , report its measured IC50.
A. > 40 µM

====

Can you tell me IC50 for the items I'm about to list?
Target Desc: HIPK2 (Homo sapiens, UniProt Q9H2X6)
Construct: The source of HIPK2 and of all of the other protein kinases used for specificity assays is as described elsewhere
Sequence (Q9H2X6 whole entry): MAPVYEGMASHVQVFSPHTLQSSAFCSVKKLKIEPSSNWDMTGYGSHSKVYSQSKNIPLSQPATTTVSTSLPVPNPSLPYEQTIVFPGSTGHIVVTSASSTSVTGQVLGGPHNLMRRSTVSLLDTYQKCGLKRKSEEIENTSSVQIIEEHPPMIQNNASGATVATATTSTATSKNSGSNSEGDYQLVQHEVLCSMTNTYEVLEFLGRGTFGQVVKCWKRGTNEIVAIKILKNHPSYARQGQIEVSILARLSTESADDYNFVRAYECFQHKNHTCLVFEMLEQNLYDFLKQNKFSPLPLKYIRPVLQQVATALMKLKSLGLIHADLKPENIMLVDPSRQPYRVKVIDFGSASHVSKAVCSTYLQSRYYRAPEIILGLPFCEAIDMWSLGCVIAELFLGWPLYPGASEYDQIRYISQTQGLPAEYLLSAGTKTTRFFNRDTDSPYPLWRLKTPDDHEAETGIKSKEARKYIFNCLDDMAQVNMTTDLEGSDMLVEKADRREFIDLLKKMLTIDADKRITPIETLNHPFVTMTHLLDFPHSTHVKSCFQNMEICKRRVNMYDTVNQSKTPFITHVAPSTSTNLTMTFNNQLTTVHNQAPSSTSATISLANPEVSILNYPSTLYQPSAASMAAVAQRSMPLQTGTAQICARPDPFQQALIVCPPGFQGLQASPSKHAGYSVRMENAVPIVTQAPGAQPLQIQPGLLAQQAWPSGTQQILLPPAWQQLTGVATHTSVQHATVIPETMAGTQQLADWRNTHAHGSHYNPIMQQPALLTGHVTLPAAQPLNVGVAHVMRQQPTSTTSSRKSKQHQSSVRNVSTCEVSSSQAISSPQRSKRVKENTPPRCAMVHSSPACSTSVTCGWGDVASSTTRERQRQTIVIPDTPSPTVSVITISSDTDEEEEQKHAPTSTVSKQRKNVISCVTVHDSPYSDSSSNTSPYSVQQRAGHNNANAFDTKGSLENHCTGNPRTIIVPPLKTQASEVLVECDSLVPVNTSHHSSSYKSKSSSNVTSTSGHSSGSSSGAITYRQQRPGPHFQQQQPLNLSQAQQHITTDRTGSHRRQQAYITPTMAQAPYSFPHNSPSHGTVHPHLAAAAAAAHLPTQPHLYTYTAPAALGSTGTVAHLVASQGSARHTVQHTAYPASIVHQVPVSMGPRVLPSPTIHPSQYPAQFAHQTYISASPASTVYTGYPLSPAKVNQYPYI
Experimental Details: HIPK2 kinase inhibition assay (33P-ATP, peptide […])
Type: biochemical
Assay Context: 20 µM ATP; in vitro
Experimental: The source of HIPK2 and of all of the other protein kinases used for specificity assays is as described elsewhere. […] The reaction was stopped by addition of 5 μl of 0.5 M orthophosphoric acid before spotting aliquots onto phosphocellulose filters. Filters were washed in 75 mM phosphoric acid (5-10 ml/each) four times and then once in methanol and dried before counting.
Entry rule: numbers only, all in µM.

Q. Given the entry `O=C1c2c(Br)c(Br)c(Br)c(Br)c2C(=O)N1c1ncns1` , report its measured IC50.
A. 2.5

Q. Given the entry `O=C1c2c(Br)c(Br)c(Br)c(Br)c2C(=O)N1c1cnccn1` , report its measured IC50.
A. 3.62

Q. Given the entry `O=C1c2c(Br)c(Br)c(Br)c(Br)c2C(=O)N1c1nncs1` , report its measured IC50.
A. 2.6

====

Value Type: melting point

Q. Given the entry `O=C1c2c(Br)c(Br)c(Br)c(Br)c2C(=O)N1c1ccn[nH]1` , report its measured melting point.
A. 333 to 334 °C (dec.)

Q. Given the entry `O=C1c2c(Br)c(Br)c(Br)c(Br)c2C(=O)N1c1nncs1` , report its measured melting point.
A. 310 to 311 °C

Q. Given the entry `O=C1c2c(Br)c(Br)c(Br)c(Br)c2C(=O)N1c1ncn[nH]1` , report its measured melting point.
A. > 360 °C

====

Target Desc: HIPK2 (Homo sapiens, UniProt Q9H2X6)
Construct: The source of HIPK2 and of all of the other protein kinases used for specificity assays is as described elsewhere
Experimental Details: HIPK2 kinase inhibition assay (33P-ATP, peptide […])
Assay type: biochemical
Assay Context: TBI value given in the text
Value Type: IC50 (nM)
Entry rule: numbers only, all in nM.

Q. Given the entry Brc1c(Br)c(Br)c2[nH]cnc2c1Br [TBI] , report its measured IC50.
A. 1000

====

Can you tell me pIC50 for the items I'm about to list?
Target Desc: CK2 (Rattus norvegicus, UniProt P19139)
Construct: Native CK2 and CK1 were purified from rat liver; from tissue; host or cells: rat liver
Sequence (P19139 whole entry): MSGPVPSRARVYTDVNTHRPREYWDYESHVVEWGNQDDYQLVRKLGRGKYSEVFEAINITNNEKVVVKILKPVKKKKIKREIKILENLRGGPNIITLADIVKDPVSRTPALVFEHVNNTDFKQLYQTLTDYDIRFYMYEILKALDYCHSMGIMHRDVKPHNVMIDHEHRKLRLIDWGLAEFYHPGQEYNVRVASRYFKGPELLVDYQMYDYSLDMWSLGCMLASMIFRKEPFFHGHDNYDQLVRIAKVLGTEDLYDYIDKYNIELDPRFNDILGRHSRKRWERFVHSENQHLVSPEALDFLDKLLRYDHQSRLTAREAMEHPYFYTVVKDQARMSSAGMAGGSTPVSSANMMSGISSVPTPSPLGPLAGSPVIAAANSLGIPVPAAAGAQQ
Sequence (P67874 whole entry partner): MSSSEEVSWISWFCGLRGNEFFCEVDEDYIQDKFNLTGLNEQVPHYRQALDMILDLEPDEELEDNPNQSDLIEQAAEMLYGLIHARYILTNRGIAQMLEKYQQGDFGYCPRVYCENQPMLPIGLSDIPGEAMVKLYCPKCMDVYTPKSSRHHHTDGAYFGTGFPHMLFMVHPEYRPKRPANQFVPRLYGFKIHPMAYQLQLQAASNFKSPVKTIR
Experimental Details: CK2 phosphorylation assay
Format: biochemical
Assay Context: 20 µM ATP
The value called pIC50 is obtained by taking minus log10 of the concentration in mol/L.

Q. Given the entry O=C1c2c(Br)c(Br)c(Br)c(Br)c2C(=O)N1c1ncns1 [5d] , report its measured pIC50.
A. 4.46

Q. Given the entry O=C1c2c(Br)c(Br)c(Br)c(Br)c2C(=O)N1c1nncs1 [5c] , report its measured pIC50.
A. 4.62

Q. Given the entry O=C1c2c(Br)c(Br)c(Br)c(Br)c2C(=O)N1c1ncc[nH]1 [TBID] , report its measured pIC50.
A. 5.26

Q. Given the entry O=C1c2c(Br)c(Br)c(Br)c(Br)c2C(=O)N1c1ncn[nH]1 [5g] , report its measured pIC50.
A. 4.60

====

Value Type: Ki (nM)
Entry rule: numbers only, all in nM.

Q. Return Ki measured with HIPK2 (Homo sapiens, UniProt Q9H2X6) given this compound: `O=C1c2c(Br)c(Br)c(Br)c(Br)c2C(=O)N1c1ncc[nH]1`
A. 200

====

Can you tell me melting point for the items I'm about to list?

Q. Given the entry `O=C1c2c(Br)c(Br)c(Br)c(Br)c2C(=O)N1c1nccs1` , report its measured melting point.
A. 228 to 232 °C

Q. Given the entry `O=C1c2c(Br)c(Br)c(Br)c(Br)c2C(=O)N1c1cnccn1` , report its measured melting point.
A. 272 to 275 °C

Q. Given the entry `O=C1c2c(Br)c(Br)c(Br)c(Br)c2C(=O)N1c1ccon1` , report its measured melting point.
A. 290 to 293 °C

Q. Given the entry `Cc1cc(N2C(=O)c3c(Br)c(Br)c(Br)c(Br)c3C2=O)[nH]n1` , report its measured melting point.
A. 331 to 332 °C

Q. Given the entry `O=C1c2c(Br)c(Br)c(Br)c(Br)c2C(=O)N1c1ncns1` , report its measured melting point.
A. 325 to 326 °C

====

Target Desc: HIPK2 (Homo sapiens, UniProt Q9H2X6)
Construct: The source of HIPK2 and of all of the other protein kinases used for specificity assays is as described elsewhere
Experimental Details: HIPK2 kinase inhibition assay (33P-ATP, peptide […])
Format: biochemical
Assay Context: 20 µM ATP; in vitro
Value Type: IC50 (µM)
Entry rule: numbers only, all in µM.

Q. Return IC50 measured with HIPK2 (Homo sapiens, UniProt Q9H2X6) given this compound: `O=C1c2c(Br)c(Br)c(Br)c(Br)c2C(=O)N1c1ccon1`
A. 23.6

Q. Return IC50 measured with HIPK2 (Homo sapiens, UniProt Q9H2X6) given this compound: `O=C1c2c(Br)c(Br)c(Br)c(Br)c2C(=O)N1c1ncn[nH]1`
A. 22.7

Q. Return IC50 measured with HIPK2 (Homo sapiens, UniProt Q9H2X6) given this compound: `O=C1c2c(Br)c(Br)c(Br)c(Br)c2C(=O)N1c1ncc[nH]1`
A. 0.33

Q. Return IC50 measured with HIPK2 (Homo sapiens, UniProt Q9H2X6) given this compound: `O=C1c2c(Br)c(Br)c(Br)c(Br)c2C(=O)N1c1nccs1`
A. 0.72
